# Tested on: MDA-MB-231
# ASSAY REMARKS: Inhibition of clonogenic survival of endocrine-resistant human MDA-MB-231 cells after 10 days by microscopy
# Assay type: functional, cell-based
# EXPERIMENTAL CONTEXT: MDA-MB-231, 240 h
pIC50: −log10 of the molar value.
# pIC50 per entry
PROPERTY MEASURED: pIC50

1. CCCCCCCCCCCCCCNC(=O)[C@H](CO)NC(=O)c1cc(OC)cc(OC)c1: 5.18
2. CCCCCCCCCCCCCCNC(=O)[C@H](CO)NC(=O)C(C)(C)C: 5.21
3. CCCCCCCCCCCCCCC[C@H](O)[C@@H](CO)NC(=O)CCCCCCC (single isomer, unassigned): 4.38
4. CCCCCCCCCCCCCCNC(=O)[C@H](CO)NCc1ccccc1: 4.98
5. CCCCCCCCCCCCCCNC(=O)[C@H](CO)NC(=O)C1CCCCC1: 4.94
6. CCCCCCCCCCCCCCNC(=O)[C@H](CO)/N=C/c1ccccc1: 5.62
7. CCCCCCCCCCCCC/C=C/[C@@H](O)[C@H](CO)NC(=O)CCCCCCC: 5.52
8. CCCCCCCCCCCCCCNC(=O)[C@H](CO)NC(C)=O: 4.12
